Measured Na of individual entries
# Species: Rattus norvegicus
# EXPERIMENT SUMMARY: Open TG-GATES - Regimen: Daily Repeat
# Assay type: toxicity, organism-based, Sprague-Dawley
# Parameters: regimen Daily Repeat, gender Male, age 6 weeks
# RUN PARAMETERS: in vivo, po, 0 mg/kg, […], tissue Plasma, route gavage, dose level Control, time 28 day
# answer = value followed by unit

- COMPOUND: "C[C@H]1O[C@H](O[C@H]2[C@H](O)[C@@H](O)[C@@H](O[C@H]3[C@H](O)[C@@H](O)C(O)O[C@@H]3CO)O[C@@H]2CO)[C@H](O)[C@@H](O)[C@@H]1N[C@H]1C=C(CO)[C@@H](O)[C@H](O)[C@H]1O (some centres undefined) [ACARBOSE]"
  DATA VALUE: "141.6 meq/L"

[in] Consider the compound O=[N+]([O-])c1ccc(O)c([N+](=O)[O-])c1 [2,4-DINITROPHENOL] . State its measured Na.
[out] 140.6 meq/L

[in] Return reported Na. Input compound: O=C1CN(/N=C/c2ccc([N+](=O)[O-])o2)C(=O)N1 [NITROFURANTOIN]
[out] 140 meq/L

[in] For the compound Cc1cccc(C)c1OCC(C)N (centres undefined) [MEXILETINE] , give its measured Na value.
[out] 143.2 meq/L

[in] Note down Na recorded for OCCN1CCN(CCCN2c3ccccc3Sc3ccc(C(F)(F)F)cc32)CC1 [FLUPHENAZINE]
[out] 140.8 meq/L

[in] Return value of Na for input C=C(C)[C@H]1Cc2c(ccc3c2O[C@@H]2COc4cc(OC)c(OC)cc4[C@@H]2C3=O)O1 [ROTENONE] , no commentary.
[out] 141.2 meq/L

[in] Read off the recorded Na for C[C@H]1C(=O)O[C@@H]2CCN3CC=C(COC(=O)[C@](C)(O)[C@]1(C)O)[C@H]23 [MONOCROTALINE]
[out] 141.8 meq/L

[in] Specify reported Na for the compound shown: Cn1cc[nH]c1=S [METHIMAZOLE]
[out] 142.4 meq/L

[in] Return value of Na for input CCOC(=O)C(C)(C)Oc1ccc(Cl)cc1 [CLOFIBRATE] , no commentary.
[out] 140.8 meq/L

----------
# Species: Rattus norvegicus
# EXPERIMENT SUMMARY: Open TG-GATES - Regimen: Daily Repeat
# Format: toxicity, organism-based, Sprague-Dawley
# Design: regimen Daily Repeat, gender Male, age 6 weeks
# RUN PARAMETERS: in vivo, po, 0 mg/kg, […], tissue Blood, route gavage, dose level Control, time 14 day
VALUE KIND: WBC (x10_2/uL)
Could you give me the number in x10_2/uL? Just the number is fine.

In the examples that follow, each entry is paired with its recorded WBC.
- COMPOUND: "C[C@H]1O[C@H](O[C@H]2[C@H](O)[C@@H](O)[C@@H](O[C@H]3[C@H](O)[C@@H](O)C(O)O[C@@H]3CO)O[C@@H]2CO)[C@H](O)[C@@H](O)[C@@H]1N[C@H]1C=C(CO)[C@@H](O)[C@H](O)[C@H]1O (some centres undefined)"
  WBC [x10_2/uL]: 107.6
- COMPOUND: "C=C(C)[C@H]1Cc2c(ccc3c2O[C@@H]2COc4cc(OC)c(OC)cc4[C@@H]2C3=O)O1"
  WBC [x10_2/uL]: 106.4
- COMPOUND: "Cc1cccc(C)c1OCC(C)N (centres undefined)"
  WBC [x10_2/uL]: 96.5

[in] Report measured WBC; entry is Cn1cc[nH]c1=S
[out] 112.2

[in] Dear colleague, please send me the reported WBC for O=[N+]([O-])c1ccc(O)c([N+](=O)[O-])c1 when you can.
[out] 124.2

[in] Please supply the value of reported WBC for the item CCOC(=O)C(C)(C)Oc1ccc(Cl)cc1 [CLOFIBRATE]
[out] 137.8

[in] Please supply the value of reported WBC for the item O=C1CN(/N=C/c2ccc([N+](=O)[O-])o2)C(=O)N1
[out] 127.2

[in] Quickly give me recorded WBC for OCCN1CCN(CCCN2c3ccccc3Sc3ccc(C(F)(F)F)cc32)CC1
[out] 145.4

[in] Note down WBC recorded for C[C@H]1C(=O)O[C@@H]2CCN3CC=C(COC(=O)[C@](C)(O)[C@]1(C)O)[C@H]23
[out] 124
